- TARGET UNDER TEST: Gal4 DNA binding domain fused to the LBD of LXRα in HEK293 cells (Homo sapiens (Human))
- Sequence (Q13133 209-447): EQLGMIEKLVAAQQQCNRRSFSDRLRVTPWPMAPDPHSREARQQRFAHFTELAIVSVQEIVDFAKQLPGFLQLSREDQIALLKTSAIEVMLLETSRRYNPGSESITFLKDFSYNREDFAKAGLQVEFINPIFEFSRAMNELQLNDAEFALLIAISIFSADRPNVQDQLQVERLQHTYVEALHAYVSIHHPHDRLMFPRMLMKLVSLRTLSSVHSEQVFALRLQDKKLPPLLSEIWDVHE
- ASSAY EXPLANATION: LXR luciferase transcriptional reporter gene assay, agonist mode, LXRα
- Format: cell-based
MEASUREMENT NAME: Cell LXRα efficacy

Asked: Endpoint output: Cell LXRα efficacy of CC(C)C[C@@H]1CN(c2cccc(S(C)(=O)=O)c2)CCN1C(=O)OC(C)(C)C . Value?
Given back: 955 (34) %

Asked: Let us now turn to CCOC(=O)c1cnc(N2CCN(c3ccc(-c4nc(C(N)=O)cs4)c(S(C)(=O)=O)c3)C[C@H]2C(C)C)nc1C(F)(F)F
Given back: 3003 (28) %

Asked: Let us now turn to CC(C)[C@@H]1CN(c2cccc(S(C)(=O)=O)c2)CCN1c1ccc(C(F)(F)F)nn1
Given back: 2110 (98) %

Asked: Let us now turn to COC(c1cnc(N2CCN(c3ccc(F)c(S(C)(=O)=O)c3)C[C@H]2C(C)C)nc1)C(F)(F)F (stereo partly shown)
Given back: 763 (48) %
